# ASSAY_METHOD_TEXT: Ratio of drug level in rat brain to plasma at 30 mg/kg, po after 4 hrs
# Format: ADME, organism-based
# Set-up: dose 30 mg/kg, route oral
# CONDITION_DETAILS: read-out: BPR
EXPERIMENTAL_ENDPOINT: Kp at 4 h

C[C@H](c1c(CCN(C)C)sc2ccccc12)n1cccn1 :: 20

----------
# MEASUREMENT_TARGET: Cytochrome P450 3A4 (Homo sapiens)
# Sequence (P08684 whole entry): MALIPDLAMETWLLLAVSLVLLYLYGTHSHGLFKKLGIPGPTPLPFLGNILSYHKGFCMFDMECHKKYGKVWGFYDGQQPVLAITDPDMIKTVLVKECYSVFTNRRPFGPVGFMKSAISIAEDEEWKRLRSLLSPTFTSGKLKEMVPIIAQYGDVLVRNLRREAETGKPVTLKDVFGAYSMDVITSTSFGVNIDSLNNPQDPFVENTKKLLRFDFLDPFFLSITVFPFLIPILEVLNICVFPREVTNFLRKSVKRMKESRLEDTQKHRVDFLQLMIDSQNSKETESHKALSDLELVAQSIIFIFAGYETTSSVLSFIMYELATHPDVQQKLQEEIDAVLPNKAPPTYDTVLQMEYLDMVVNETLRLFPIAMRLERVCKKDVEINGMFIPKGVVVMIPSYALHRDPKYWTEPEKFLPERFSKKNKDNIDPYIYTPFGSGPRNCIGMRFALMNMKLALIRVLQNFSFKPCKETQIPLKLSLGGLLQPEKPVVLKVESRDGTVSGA
# ASSAY_METHOD_TEXT: Inhibition of recombinant CYP3A4 after 30 mins by fluorescence assay
Reported values of IC50 for individual entries
EXPERIMENTAL_ENDPOINT: IC50

CC(c1c(CCN(C)C)sc2ccccc12)n1ccnc1 (racemic) :: 5.2 µM
COc1cccnc1[C@H](C)c1c(CCN(C)C)sc2ccccc12 :: > 10 µM
Cc1cccnc1[C@H](C)c1c(CCN(C)C)sc2ccccc12 :: > 10 µM
C[C@H](c1cccnc1Cl)c1c(CCN(C)C)sc2ccccc12 :: > 10 µM
C[C@@H](c1cscn1)c1c(CCN(C)C)sc2ccccc12 :: > 10 µM
CC(c1ccncc1)c1c(CCN(C)C)sc2ccccc12 (racemic) :: 2.8 µM
CC(c1nccs1)c1c(CCN(C)C)sc2ccccc12 (racemic) :: > 10 µM
C[C@@H](c1cncs1)c1c(CCN(C)C)sc2ccccc12 :: > 10 µM
